B1: H2-Kb / B14 (parent)
chain 1: GEQVEQRPPHLSVREGDSAVIICTYTDPNSYYFFWYKQEPGAGLQLLMKVFSSTEINEGQGFTVLLNKKDKQLSLNLTAAHPGDSAVYFCAVSARGNMGYKLTFGTGTSLLVDP
chain 2: GGIITQTPKFLIGQEGQKLTLKCQQNFNHDTMYWYRQDSGKGLRLIYYSITENDLQKGDLSEGYDASREKKSSFSLTVTSAQKNEMAVFLCASSMGQGASDYTFGSGTRLLVI
chain 3: not shown
chain 4: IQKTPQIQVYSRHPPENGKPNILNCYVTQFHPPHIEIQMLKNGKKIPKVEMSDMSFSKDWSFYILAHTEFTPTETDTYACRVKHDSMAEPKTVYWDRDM
chain 5: SIINFEKL

# Variants of: B1
# Assay Remarks: % of reporter cells activated (NFAT-GFP), raw; also: test concentration or dose not given here
# Conditions: with B14; scale: % of reporter cells activated
Below, each entry is listed with its recorded ratio to parent.
Just the number, please, no unit attached.

Worked examples, 5 variants total:
chain 5 N4W ... 1.01
chain 5 N4Q ... 1.07
chain 5 S1I ... 0.76
chain 5 N4G ... 0.644
chain 5 I3W ... 1.11

[in] Which ratio to parent reading was recorded for the variant chain 5 F5G ?
[out] 1.07

[in] Which ratio to parent reading was recorded for the variant chain 5 E6D ?
[out] 0.618

[in] Which ratio to parent reading was recorded for the variant chain 5 E6K ?
[out] 0.707

[in] Which ratio to parent reading was recorded for the variant chain 5 N4D ?
[out] 1.23

[in] Which ratio to parent reading was recorded for the variant chain 5 E6P ?
[out] 0.867

[in] Which ratio to parent reading was recorded for the variant chain 5 E6W ?
[out] 1.2

[in] Which ratio to parent reading was recorded for the variant chain 5 I3M ?
[out] 0.84

[in] Which ratio to parent reading was recorded for the variant chain 5 I3Q ?
[out] 1.69

[in] Which ratio to parent reading was recorded for the variant chain 5 I2E ?
[out] 0.964

[in] Which ratio to parent reading was recorded for the variant chain 5 K7W ?
[out] 1.26

[in] Which ratio to parent reading was recorded for the variant chain 5 N4R ?
[out] 1.32

Sourced from paper PMC11480844
